Reference source: the METLIN SMRT retention time set (Domingo-Almenara et al. 2019)

What RP-LC retention time was measured for each of the following?
Experiment: gradient 5% acetonitrile 3 min, to 50% in 2 min, to 85% in 15 min, held 3 min, 100 µL/min
Conditions: column: Zorbax Extend-C18 2.1 x 50 mm; eluents: water / acetonitrile, 0.1% formic acid
Write the value in s as a bare number.

Look up RP-LC retention time of `CCOC(=O)c1sc(NC(=O)CN2C(=O)c3ccccc3C2=O)c(SC#N)c1C` and report it. 912

Look up RP-LC retention time of O=C(NCc1ccccn1)C1CCCN(c2ccc(Sc3ccc(Br)cc3)nn2)C1 (centres undefined) and report it. 702

Look up RP-LC retention time of `COc1cccc(C2(C(N)=O)CC2)c1` and report it. 688

Look up RP-LC retention time of `Cc1nc(-c2cc(S(=O)(=O)NCCCN3CCC(C)CC3)c(C)s2)sc1C` and report it. 699

Look up RP-LC retention time of `CCNC(=O)C1CCN(c2nc3ccc(-c4cccc(F)c4)nc3s2)CC1` and report it. 905

Look up RP-LC retention time of `Cc1cc(C)nc(Nc2nc(C(=O)NCCn3nc(-c4ccco4)ccc3=O)cs2)n1` and report it. 693

Look up RP-LC retention time of `COc1ccc(-c2nnc(-c3ccccc3)o2)cc1S(=O)(=O)N1CCCC1` and report it. 908

Look up RP-LC retention time of `COc1cccc(-c2noc(CN3C(=O)COc4ccccc43)n2)c1OC` and report it. 908

Look up RP-LC retention time of `COc1ccc(-c2nc3ccccn3c2Nc2ccc(C)cc2)cc1O` and report it. 663

Look up RP-LC retention time of `COc1cc([C@@H]2c3cc4c(cc3[C@H](O)[C@@H](CO)[C@@H]2C(=O)NCC2CC2)OCO4)cc(OC)c1OC` and report it. 666

Look up RP-LC retention time of `Cc1nnc2ccc(-c3noc(-c4ccc(Br)cc4)n3)cn12` and report it. 1030

Look up RP-LC retention time of `C[C@@H](CN1CCC(Cc2ccccc2)CC1)[C@@H](O)c1ccc(O)cc1` and report it. 737

Look up RP-LC retention time of CC1CCCCN1S(=O)(=O)c1ccc2c(c1)CCC(=O)N2CC(=O)NCCc1ccccc1 (centres undefined) and report it. 900

Look up RP-LC retention time of `O=C(Cc1cccc(F)c1)N1CCC2(CC1)Nc1ccccc1-n1cccc12` and report it. 998

Look up RP-LC retention time of `COc1cc(Cl)c(NC(=O)CN2C(=O)CN(C)C(=O)c3ccccc32)c(OC)c1` and report it. 717

Look up RP-LC retention time of `CCOc1ccccc1-c1noc(Cn2c(=O)n(-c3cccc(OC)c3)c(=O)c3sccc32)n1` and report it. 964

Look up RP-LC retention time of `COc1ccc(C(=O)N2CCc3cn(C)c4cccc(c34)C2)c(OC)c1` and report it. 875

Look up RP-LC retention time of `CC(=O)c1ccc(NC(=O)c2cn(C)nc2C)cc1` and report it. 630

Look up RP-LC retention time of `COCC(=O)Nc1cnc(-c2ccc(OC)cc2)nc1` and report it. 724

Look up RP-LC retention time of `CC(C)c1ccccc1NS(=O)(=O)c1cc(-c2nc(C(C)(C)C)cs2)cs1` and report it. 603

Look up RP-LC retention time of NC(=O)C1CCN(C2CC(=O)N(c3cccc(F)c3)C2=O)CC1 (centres undefined) and report it. 582

Look up RP-LC retention time of CCOC(=O)C12CC1/C(=N\O)c1ccccc1O2 (centres undefined) and report it. 773

Look up RP-LC retention time of COc1ccccc1C(=O)N1CCCC1c1cc(C(C)C)no1 (centres undefined) and report it. 831

Look up RP-LC retention time of `O=C(Nc1nc(CC(=O)N2CCn3c2nc2ccccc23)cs1)c1ccsc1` and report it. 657

Look up RP-LC retention time of O=C(NCC1CC1)C1CCCN(c2nccn3nc(-c4ccccc4Cl)cc23)C1 (centres undefined) and report it. 816

Look up RP-LC retention time of COc1ccccc1NC(=O)N1CCCC1c1nc(-c2ccccc2OC)no1 (centres undefined) and report it. 894

Look up RP-LC retention time of `Cc1cc(Cl)ccc1NC(=O)c1cccn1Cc1noc(C2CC2)n1` and report it. 1020

Look up RP-LC retention time of `CCC(=O)N1CCC2(CC1)NC(=O)c1ccccc1O2` and report it. 649

Look up RP-LC retention time of `O=c1ccn(-c2ccc(Cl)cc2)nc1-c1nc(-c2ccc(F)c(Br)c2)no1` and report it. 1080
